Recorded values, source patent US20230066011A1.

# pIC50 per entry for human GST-CLK1 (Homo sapiens)
pIC50: −log10 of the molar value.

The cases that follow already have their pIC50 on record.
CNc1nc(Nc2ccc(S(=O)(=O)N3CCC(N4CCOCC4)CC3)cc2OC)nc2[nH]ccc12 [Example 3, 2,2,2-trifluoroacetate]: 6.00 to 6.52
COc1cc(S(=O)(=O)N2CCC(N3CCOCC3)CC2)ccc1Nc1nc(NCC2CCC2)c2c(C(F)(F)F)c[nH]c2n1: 6.00 to 6.52
N#Cc1c[nH]c2nc(Nc3ccc(C(=O)N4CCOCC4)c4c3OCC4)nc(NC3CCC3)c12: > 7.00

Task item: Return pIC50 measured with human GST-CLK1 (Homo sapiens) given this compound: O=C(c1ccc(Nc2nc(NCC3CCC3)c3c(C(F)(F)F)c[nH]c3n2)c2c1OCCO2)N1CCOCC1
Sequence (P49759 129-484 limits assumed): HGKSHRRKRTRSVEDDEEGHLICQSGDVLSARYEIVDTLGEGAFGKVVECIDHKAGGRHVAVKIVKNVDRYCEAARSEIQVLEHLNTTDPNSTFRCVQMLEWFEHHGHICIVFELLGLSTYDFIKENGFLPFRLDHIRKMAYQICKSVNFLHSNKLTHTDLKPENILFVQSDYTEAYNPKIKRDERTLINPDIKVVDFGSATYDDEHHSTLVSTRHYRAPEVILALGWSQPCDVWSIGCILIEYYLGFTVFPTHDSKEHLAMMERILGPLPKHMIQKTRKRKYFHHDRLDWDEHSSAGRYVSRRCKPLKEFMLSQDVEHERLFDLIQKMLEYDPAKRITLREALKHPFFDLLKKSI
Reply: 6.00 to 6.52

Task item: And then CCCNc1nc(Nc2ccc(S(=O)(=O)N3CCC(N4CCOCC4)CC3)cc2OC)nc2[nH]ccc12 [Example 8, 2,2,2-trifluoroacetate] , what is it?
Reply: 6.00 to 6.52

Task item: Next up: COCC(C)(C)Nc1nc(Nc2ccc(S(=O)(=O)N3CCOCC3)cc2OC)nc2[nH]cc(C#N)c12
Reply: 6.00 to 6.52

====

target: LRRK2 (Homo sapiens); assay: LRRK2 enzyme inhibition, ADP-Glo kinase assay; type: biochemical; set-up: purchased Invitrogen PR8604B; conditions: ATP 10 μM
Sequence (Q5S007 970-2527 limits assumed): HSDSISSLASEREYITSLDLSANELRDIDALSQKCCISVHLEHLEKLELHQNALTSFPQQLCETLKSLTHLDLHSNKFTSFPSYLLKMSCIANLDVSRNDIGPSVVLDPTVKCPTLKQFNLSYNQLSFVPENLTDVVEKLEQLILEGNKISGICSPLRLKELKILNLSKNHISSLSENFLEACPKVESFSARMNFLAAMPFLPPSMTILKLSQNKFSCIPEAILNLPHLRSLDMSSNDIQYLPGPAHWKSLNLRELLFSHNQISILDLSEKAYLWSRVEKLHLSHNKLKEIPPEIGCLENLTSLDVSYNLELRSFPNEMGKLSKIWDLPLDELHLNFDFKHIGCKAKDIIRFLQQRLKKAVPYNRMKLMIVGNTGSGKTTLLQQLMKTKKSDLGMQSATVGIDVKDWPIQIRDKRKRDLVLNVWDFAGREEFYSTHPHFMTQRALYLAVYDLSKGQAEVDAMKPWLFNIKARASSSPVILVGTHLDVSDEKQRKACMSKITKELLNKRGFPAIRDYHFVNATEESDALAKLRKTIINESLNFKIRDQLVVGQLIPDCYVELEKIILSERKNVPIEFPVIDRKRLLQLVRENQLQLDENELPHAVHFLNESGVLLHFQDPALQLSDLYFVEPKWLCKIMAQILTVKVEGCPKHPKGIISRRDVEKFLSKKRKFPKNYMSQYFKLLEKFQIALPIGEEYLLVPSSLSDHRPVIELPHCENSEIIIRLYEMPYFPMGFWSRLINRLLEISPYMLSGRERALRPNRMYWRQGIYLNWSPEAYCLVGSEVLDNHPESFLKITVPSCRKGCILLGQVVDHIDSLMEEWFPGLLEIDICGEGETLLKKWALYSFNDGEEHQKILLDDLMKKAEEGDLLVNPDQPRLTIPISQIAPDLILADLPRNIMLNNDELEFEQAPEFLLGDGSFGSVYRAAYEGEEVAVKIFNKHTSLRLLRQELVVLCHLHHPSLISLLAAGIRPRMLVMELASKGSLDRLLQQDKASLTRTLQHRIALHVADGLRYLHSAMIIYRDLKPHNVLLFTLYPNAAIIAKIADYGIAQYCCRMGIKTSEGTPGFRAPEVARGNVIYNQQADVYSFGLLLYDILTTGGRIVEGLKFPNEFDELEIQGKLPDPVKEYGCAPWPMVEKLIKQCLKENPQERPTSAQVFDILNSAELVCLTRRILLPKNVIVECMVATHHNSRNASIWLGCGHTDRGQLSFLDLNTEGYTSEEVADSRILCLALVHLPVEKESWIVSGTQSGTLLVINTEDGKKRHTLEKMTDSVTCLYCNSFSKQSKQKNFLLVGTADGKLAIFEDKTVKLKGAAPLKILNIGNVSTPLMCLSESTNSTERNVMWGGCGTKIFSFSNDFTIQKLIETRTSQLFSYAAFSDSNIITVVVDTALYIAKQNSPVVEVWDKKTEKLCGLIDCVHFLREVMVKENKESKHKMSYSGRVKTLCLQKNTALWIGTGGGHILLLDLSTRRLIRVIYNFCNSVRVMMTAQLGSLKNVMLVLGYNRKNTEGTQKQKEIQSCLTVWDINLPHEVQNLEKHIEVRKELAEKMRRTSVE
attributeMeasured: IC50

CCNc1nc(Nc2ccc(S(=O)(=O)N3CCOCC3)c3c2OCCO3)nc2[nH]cc(C(F)(F)F)c12: < 100 nM
CCCNc1nc(Nc2ccc(S(=O)(=O)N3CCOCC3)cc2OC)nc2[nH]cc(C(F)(F)F)c12: 101 to 300 nM
COCCNc1nc(Nc2ccc(S(C)(=O)=O)cc2OC)nc2[nH]cc(C#N)c12: < 100 nM
O=C(c1ccc(Nc2nc(NC3CCOCC3)c3c(C(F)(F)F)c[nH]c3n2)c2c1OCCO2)N1CCN(C2COC2)CC1: < 100 nM
C=CCNc1nc(Nc2ccc(S(=O)(=O)N3CCOCC3)cc2OC)nc2[nH]cc(C(F)(F)F)c12: 301 to 1000 nM
COCCNc1nc(Nc2ccc(C(=O)N3C[C@@H]4C[C@H]3CO4)c3c2OCCO3)nc2[nH]cc(C(F)(F)F)c12: < 100 nM

Task item: Please look up its IC50: N#Cc1c[nH]c2nc(Nc3ccc(C(=O)N4CCOCC4)c4c3OCCO4)nc(C3CC3)c12
Reply: < 100 nM

====

Reported remaining binding at 1 µM by item:
molecular target: PLK4 (Homo sapiens, UniProt O00444); construct: purchased DiscoverX Corp. (ScanMAX Kinase analysis panel, service); experiment: ScanMAX Kinase analysis panel, PLK4; type: binding; conditions: 1 μM in DMSO; <35% considered inhibitory; read-out: percent control (% control), PLK4
Sequence (O00444 whole entry): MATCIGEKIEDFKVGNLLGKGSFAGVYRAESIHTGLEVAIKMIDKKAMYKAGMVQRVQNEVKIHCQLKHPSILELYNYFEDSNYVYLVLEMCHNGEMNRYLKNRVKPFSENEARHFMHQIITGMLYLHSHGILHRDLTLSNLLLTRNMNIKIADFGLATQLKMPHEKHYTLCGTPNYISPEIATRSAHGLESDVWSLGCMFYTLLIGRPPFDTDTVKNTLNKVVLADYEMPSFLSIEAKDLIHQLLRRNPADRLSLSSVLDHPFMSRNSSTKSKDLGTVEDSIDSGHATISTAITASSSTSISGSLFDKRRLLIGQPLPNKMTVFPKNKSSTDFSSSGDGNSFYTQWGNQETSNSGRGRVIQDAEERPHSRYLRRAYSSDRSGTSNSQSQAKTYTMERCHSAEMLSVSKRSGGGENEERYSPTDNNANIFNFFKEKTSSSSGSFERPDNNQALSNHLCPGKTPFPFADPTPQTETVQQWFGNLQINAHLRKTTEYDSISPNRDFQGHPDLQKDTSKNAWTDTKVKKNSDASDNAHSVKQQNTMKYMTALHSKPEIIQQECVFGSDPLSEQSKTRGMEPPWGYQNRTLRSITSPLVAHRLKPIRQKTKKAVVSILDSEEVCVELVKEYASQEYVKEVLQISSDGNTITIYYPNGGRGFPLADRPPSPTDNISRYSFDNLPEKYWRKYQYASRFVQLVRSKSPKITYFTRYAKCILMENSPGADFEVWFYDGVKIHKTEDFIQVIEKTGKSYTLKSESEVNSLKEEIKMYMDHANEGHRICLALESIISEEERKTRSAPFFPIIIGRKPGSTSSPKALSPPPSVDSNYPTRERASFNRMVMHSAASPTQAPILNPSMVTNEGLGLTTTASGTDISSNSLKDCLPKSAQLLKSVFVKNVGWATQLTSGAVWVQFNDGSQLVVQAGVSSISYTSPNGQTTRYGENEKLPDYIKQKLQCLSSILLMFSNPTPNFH
Respond numerically; units are % and should not be typed.

Here are 2 compounds together with their reported answers.
CCNc1nc(Nc2ccc(S(=O)(=O)N3CCC(N4CCOCC4)CC3)cc2OC)nc2[nH]cc(C(F)(F)F)c12 [Example 158, 2,2,2-trifluoroacetate]: 26
CNc1nc(Nc2ccc(C(=O)N3CCC(N4CCOCC4)CC3)c3c2OCCO3)nc2[nH]cc(C(F)(F)F)c12: 7.8

Task item: What value of remaining binding at 1 µM has been recorded for this entry: CCCNc1nc(Nc2ccc(S(=O)(=O)N3CCC(N4CCOCC4)CC3)cc2OC)nc2[nH]cc(C(F)(F)F)c12
Reply: 11
